# Tested on: multiple species and strains
# test_description: microbe, parasite or virus in culture
# measurement_conditions: Escherichia coli, ATCC25922, read-out: MIC S11, E. coli ATCC 25922

- compound: "CNc1cc(F)cc2c1[nH]c1nc(Oc3cnc(C)nc3)nc(N3C[C@H]4C[C@@H]3C[C@H]4N)c12 [GP-6, reference compound]"
  MIC (µg/mL): 0.127
- compound: "CNc1cc(F)c(F)c2c1[nH]c1ncc(-c3cc(C)c4ccc(C(=O)O)c(=O)n4c3)c(N(C)C)c12"
  MIC (µg/mL): 0.42
- compound: "CNc1cc(F)c(C#N)c2c1[nH]c1ncc(-c3ccc4ccc(C(=O)O)c(=O)n4c3)c(N3CC[C@H]4CCN(C)C4C3)c12 (stereo in doubt)"
  MIC (µg/mL): 0.166
- compound: "CNc1cc(F)c(Cl)c2c1[nH]c1ncc(-c3ccc4ccc(C(=O)O)c(=O)n4c3)c(N3CC[C@]4(C[C@H]4N)C3)c12 [Example 5.01B]"
  MIC (µg/mL): 0.097
- compound: "CNc1cc(F)c(Cl)c2c1[nH]c1ncc(-c3ccc4ccc(C(=O)O)c(=O)n4c3)c(N3C[C@H]4CC[C@@H](N(C)C)[C@H]4C3)c12"
  MIC (µg/mL): 0.206
- compound: "CNc1cc(F)c(F)c2c1[nH]c1ncc(-c3ccc4ccc(C(=O)O)c(=O)n4c3)c(N3CC[C@@]4(C[C@@H]4N)C3)c12 (single isomer, unassigned) [Example 4.01A]"
  MIC (µg/mL): 0.111
- compound: "CNc1cc(F)c(Cl)c2c1[nH]c1ncc(-c3ccc4ccc(C(=O)O)c(=O)n4c3)c(N3CC[C@@]4(C[C@@H]4N)C3)c12 (single isomer, unassigned) [Example 5.01A]"
  MIC (µg/mL): 0.194
- compound: "CNc1cc(F)c(F)c2c1[nH]c1ncc(-c3ccc4ccc(C(=O)O)c(=O)n4c3)c(N3CC[C@@H]4CCN(C)[C@@H]4C3)c12 [Example 3.04B]"
  MIC (µg/mL): 0.164
- compound: "CNc1cc(F)c(F)c2c1[nH]c1ncc(-c3ccc4ccc(C(=O)O)c(=O)n4c3)c(N3CC[C@]4(C[C@@H]4N)C3)c12 [Example 4.01D]"
  MIC (µg/mL): 0.111
- compound: "CNc1cc(F)c(C#N)c2c1[nH]c1ncc(-c3ccc4ccc(C(=O)O)c(=O)n4c3)c(N(C)C)c12"
  MIC (µg/mL): 0.551
- compound: "CNc1cc(F)c(F)c2c1[nH]c1ncc(-c3ccc4c(Cl)cc(C(=O)O)c(=O)n4c3)c(N3CC[C@H]4CN(C)C[C@H]43)c12 (relative stereo)"
  MIC (µg/mL): 0.203
- compound: "CNc1cc(F)c(Cl)c2c1[nH]c1ncc(-c3ccc4ccc(C(=O)O)c(=O)n4c3)c(N3CC[C@@]4(C[C@H]4N)C3)c12 [Example 5.01C]"
  MIC (µg/mL): 0.194

* * *

# System: S. aureus (ATCC29213)
# test_description: 50% growth inhibitory concentration (IC50) determination assay, S. aureus
# Format: cell-based
# measurement_conditions: Staphylococcus aureus, ATCC29213; Iso-Sensitest broth, growth by OD 600 nm over 16 h; <0.098 = detection limit
pIC50: −log10 of the molar value.
Below is a list of entries, each paired with its recorded pIC50 value.
property_name: pIC50

- compound: "CNc1cc(F)c(F)c2c1[nH]c1ncc(-c3cc(F)c4ccc(C(=O)O)c(=O)n4c3)c(N3CC[C@H]4CN(C)C[C@H]43)c12 (relative stereo) [Example 2.02]"
  endpoint_value: 6.97
- compound: "CNc1cc(F)c(F)c2c1[nH]c1ncc(-c3ccc4ccc(C(=O)O)c(=O)n4c3)c(N3C[C@@H]4CCN(C)[C@@H]4C3)c12 [Example 3.03B]"
  endpoint_value: "> 7.01"
- compound: "CNc1cc(F)cc2c1[nH]c1ncc(-c3ccc4ccc(C(=O)O)c(=O)n4c3)c(N3C[C@@H]4CCN(C)[C@@H]4C3)c12 (single isomer, unassigned) [Example 3.01B]"
  endpoint_value: "> 7.01"
- compound: "CNc1cc(F)c(F)c2c1[nH]c1ncc(-c3ccc4ccc(C(=O)O)c(=O)n4c3)c(N3CC[C@@H]4CCN(C)[C@@H]4C3)c12 [Example 3.04B]"
  endpoint_value: "> 7.01"
- compound: "CNc1cc(F)c(C#N)c2c1[nH]c1ncc(-c3ccc4ccc(C(=O)O)c(=O)n4c3)c(N3C[C@H]4CCN(C)[C@H]4C3)c12 (single isomer, unassigned) [Example 1.11]"
  endpoint_value: "> 7.01"
- compound: "CNc1cc(F)cc2c1[nH]c1ncc(-c3ccc4ccc(C(=O)O)c(=O)n4c3)c(N3CCO[C@@H](CN(C)C)C3)c12 [Example 2.08]"
  endpoint_value: 6.36
- compound: "CNc1cc(F)c(F)c2c1[nH]c1ncc(-c3ccc4ccc(C(=O)O)c(=O)n4c3)c(N3C[C@@H]4[C@H](C3)[C@H]4N(C)C)c12 [Example 1.13]"
  endpoint_value: "> 7.01"
- compound: "CNc1cc(F)c(F)c2c1[nH]c1ncc(-c3ccc4ccc(C(=O)O)c(=O)n4c3)c(N3CC[C@@]4(C[C@@H]4N)C3)c12 (single isomer, unassigned) [Example 4.01A]"
  endpoint_value: "> 7.01"
- compound: "CNc1cc(F)c(F)c2c1[nH]c1ncc(-c3ccc4ccc(C(=O)O)c(=O)n4c3)c(N3CC[C@]4(C[C@H]4N)C3)c12 [Example 4.01C]"
  endpoint_value: "> 7.01"
- compound: "CNc1cc(F)cc2c1[nH]c1ncc(-c3ccc4ccc(C(=O)O)c(=O)n4c3)c(N3CC[C@@H]4CN(C)C[C@@H]43)c12 (single isomer, unassigned) [Example 3.02B]"
  endpoint_value: 5.89
- compound: "CNc1cc(F)c(C#N)c2c1[nH]c1ncc(-c3ccc4ccc(C(=O)O)c(=O)n4c3)c(N3CC[C@H]4CN(C)C[C@H]43)c12 [Example 1.14]"
  endpoint_value: "> 7.01"
- compound: "CNc1cc(F)c(F)c2c1[nH]c1ncc(-c3ccc4ccc(C(=O)O)c(=O)n4c3)c(N3CC[C@H]4CCN(C)[C@H]4C3)c12 [Example 3.04A]"
  endpoint_value: "> 7.01"
- compound: "CNc1cc(F)c(F)c2c1[nH]c1ncc(-c3ccc4c(CN5CCOCC5)cc(C(=O)O)c(=O)n4c3)c(N3CC[C@H]4CN(C)C[C@H]43)c12 (relative stereo) [Example 2.09]"
  endpoint_value: 6.76
